# TEST SYSTEM: Plasmodium falciparum protein kinase 6 (PK6, PF3D7_1337100) (UniProt Q8IDW1)
# ASSAY SUMMARY: PfPK6 kinase inhibitors, biochemical, TCAMS library (AID 1159586)
# ASSAY SETUP: recombinant PfPK6, Kinase-Glo ATP depletion luminescence
Measured potencies and affinities stand elsewhere. Active and inactive are the calls of the source. The rule behind the calls is not given here.
TEST READOUT: outcome

Some compounds with known outcome results, for comparison:
Using the record for Cc1nc(-c2ccncc2)sc1C(=O)Nc1ccc(Cl)cc1C(=O)Nc1ccc(Cl)cc1 , report its outcome.
inactive

// same read-out, input: CC(C)Oc1ccc(C=CC(=O)Nc2noc3ccccc23)cc1
inactive

// same read-out, input: COc1ccc(-c2cnc3ccc(NCc4ccc(F)cc4)nn23)cc1OC
inactive

// same read-out, input: O=c1cc(NCCCNC2CCc3c(Cl)cc(Cl)cc32)[nH]c2ccccc12 (stereo not given)
inactive

// same read-out, input: O=C(Cc1cnc[nH]1)Nc1cccc(-c2cccc(-c3nc4ccc(F)cc4[nH]3)c2)c1
inactive

// same read-out, input: CN(C)CCNCc1ccc(-c2ccc(-c3nc4ccccc4[nH]3)s2)cc1
inactive

// same read-out, input: CC(C)CCN1CCC(Oc2cccc(NC(=O)c3ccc(C(F)(F)F)cc3)c2)CC1
inactive

// same read-out, input: Cc1cc(=O)c(-c2ccc(OCCSc3ccc(C(F)(F)F)cn3)cc2)c(C)[nH]1
inactive

***
Using the record for COc1ccc2nccc([C@@H](O)CN3CCC(NCc4cc5ccccc5[nH]4)CC3)c2c1 , report its outcome.
inactive

// same read-out, input: Cc1nnsc1C(=O)Nc1ccc(-c2cccc(-c3nc4ccc(C(F)(F)F)cc4[nH]3)c2)cc1
inactive

====

We begin with a simple list: items and their reported inhibition.
# TEST SYSTEM: L-lactate dehydrogenase (Plasmodium falciparum (isolate CDC / Honduras)) (UniProt Q27743)
# Sequence (Q27743 whole entry, looked up): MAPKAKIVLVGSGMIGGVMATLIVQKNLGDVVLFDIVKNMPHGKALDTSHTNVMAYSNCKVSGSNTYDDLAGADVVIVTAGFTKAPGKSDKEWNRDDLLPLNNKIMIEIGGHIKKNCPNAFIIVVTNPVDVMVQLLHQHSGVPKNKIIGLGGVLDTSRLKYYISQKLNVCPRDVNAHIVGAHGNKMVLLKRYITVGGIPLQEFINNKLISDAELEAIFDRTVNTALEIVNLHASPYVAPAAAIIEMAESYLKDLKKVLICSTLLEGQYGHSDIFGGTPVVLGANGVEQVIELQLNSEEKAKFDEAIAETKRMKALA
# ASSAY SUMMARY: PfLDH activity inhibition – cell lysate, 3D7 strain, counter-screen for P. falciparum growth inhibition project (AID 2304);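 note: 0% = vehicle and 100% = reference inhibitor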
# ASSAY SETUP: P. falciparum 3D7 crude extract, LDH APAD/NBT absorbance; at 2 µM; active compounds read high
Reply with just the number (in %).

Some compounds with known inhibition results, for comparison:
Find the measured inhibition: item CCc1cn2c3c(cc(C(=O)N[C@@H](Cc4cccc(Cl)c4)[C@H](O)CNC4CCCCC4)cc13)N(C)S(=O)(=O)CC2 , target or system L-lactate dehydrogenase (Plasmodium falciparum (isolate CDC / Honduras)) (UniProt Q27743).
2

// same read-out, input: CC(C)CN1CCCN(Cc2cccc(NC(=O)c3cc4ccccc4s3)c2)CC1
0

// same read-out, input: Cn1nccc1C(=O)NCCNCc1ccc(-c2ccc(-c3nc4ccc(F)cc4[nH]3)cc2)cc1
-5

***
Find the measured inhibition: item CCCCCCCCn1ccc(=N)cc1 , target or system L-lactate dehydrogenase (Plasmodium falciparum (isolate CDC / Honduras)) (UniProt Q27743).
-5

// same read-out, input: CN1CCC(C(=O)Nc2cccc(-c3ccc(-c4nc5ccc(F)cc5[nH]4)cc3)c2)CC1
3

====

# ASSAY SUMMARY: antimalarial activity against Dd2 strain (AID 2302);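 note: 0% = DMSO untreated growth and 100% = chloroquine plus artemisinin killed control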
# ASSAY SETUP: P. falciparum Dd2 in RBCs, LDH growth readout, 72 h; at 2 µM
Active and inactive are the calls of the source.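 Rule for the calls: active = growth inhibition above 50% at the single 2 µM test dose, taken to imply half-maximal potency below 2 µM; inactive = the rest.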
# output must be one of T = active, F = inactive

Recorded results for 4 compounds are shown here.
Record lookup: outcome of this test for NC(N)=NC(=O)Nc1cc(F)c(Cl)c(Br)c1 ?
T

// same read-out, input: CSc1ccc(CN2CCC(NC(=O)c3ccc(-c4cccc(C(F)(F)F)c4)s3)CC2)cc1
F

// same read-out, input: COc1ccc(C2=C(Nc3ccc4oc5ccccc5c4c3)c3ccccc3C2=O)cc1
T

// same read-out, input: CCCC(C)Nc1nc(C)cc(N[C@@H](CC(C)C)C(=O)NCc2cccc(F)c2)n1 (stereo not given in full)
T

***
Record lookup: outcome of this test for Cc1noc(C)c1-c1cccc(CNCc2cccc(-c3ccc(-c4nc5ccccc5[nH]4)s3)c2)c1 ?
F
